Listing: IC50 of selected molecules
Biological target: recombinant glucosyltransferase domain of C. difficile Toxin B/TcdB (Clostridioides difficile, UniProt P18177)
Construct: 6-His (C); purchased R&D Systems 6246-GT
Sequence (P18177 1-543): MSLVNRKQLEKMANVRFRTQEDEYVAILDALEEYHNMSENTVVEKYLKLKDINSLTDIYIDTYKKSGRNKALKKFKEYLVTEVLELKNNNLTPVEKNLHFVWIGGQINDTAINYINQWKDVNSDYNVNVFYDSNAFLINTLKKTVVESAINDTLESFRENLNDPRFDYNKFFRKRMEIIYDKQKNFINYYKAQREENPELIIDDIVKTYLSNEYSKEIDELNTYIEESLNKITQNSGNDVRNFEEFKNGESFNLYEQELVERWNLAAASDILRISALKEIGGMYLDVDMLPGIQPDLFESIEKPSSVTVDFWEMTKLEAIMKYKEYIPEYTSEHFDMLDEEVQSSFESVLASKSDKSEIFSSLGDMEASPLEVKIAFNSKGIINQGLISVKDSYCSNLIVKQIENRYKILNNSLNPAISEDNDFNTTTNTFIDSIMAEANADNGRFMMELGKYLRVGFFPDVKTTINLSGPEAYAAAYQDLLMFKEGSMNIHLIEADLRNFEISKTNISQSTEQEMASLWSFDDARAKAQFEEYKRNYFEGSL
Experiment: biochemical

Cc1ccc(NC(=O)c2ccc(CN3C(=O)c4ccc(Cl)cc4NC(=O)[C@H]3CCN3CCCCC3)cc2)nc1 [Example 10b] = 10 to 35 µM
COc1ccc2c(c1)NC(=O)[C@@H](Cc1ccc(Cl)c(Cl)c1)N(Cc1ccc(C(=O)O)cc1)C2=O = 1 to 10 µM
O=C(Nc1ccc(C(F)(F)F)cn1)c1ccc(CN2C(=O)c3ccc(Cl)cc3NC(=O)[C@H]2Cc2ccccn2)s1 = 1 to 10 µM
CCc1ccc(NC(=O)c2ccc(CN3C(=O)c4ccc(Cl)cc4NC(=O)[C@H]3Cc3cccnc3)cc2)nc1 = < 0.1 µM
Cc1cccc(C[C@@H]2C(=O)Nc3cc(Cl)ccc3C(=O)N2Cc2ccc(C(=O)O)cc2)c1 = 1 to 10 µM

Please examine the following record next.
Entry under test: Cc1cnc(NC(=O)c2ccc(CN3C(=O)c4ccc(Cl)cc4NC(=O)[C@H]3Cc3ccccn3)cc2C)cn1 . Its IC50 was < 0.1 µM
